target: Integrin alpha-IIb/beta-3 (Homo sapiens, UniProt P05106+P08514); experiment: Inhibition of [125]fibrinogen binding to alpha IIb beta-3 integrin; format: protein-complex assay
Sequence (P05106 27-788 limits assumed): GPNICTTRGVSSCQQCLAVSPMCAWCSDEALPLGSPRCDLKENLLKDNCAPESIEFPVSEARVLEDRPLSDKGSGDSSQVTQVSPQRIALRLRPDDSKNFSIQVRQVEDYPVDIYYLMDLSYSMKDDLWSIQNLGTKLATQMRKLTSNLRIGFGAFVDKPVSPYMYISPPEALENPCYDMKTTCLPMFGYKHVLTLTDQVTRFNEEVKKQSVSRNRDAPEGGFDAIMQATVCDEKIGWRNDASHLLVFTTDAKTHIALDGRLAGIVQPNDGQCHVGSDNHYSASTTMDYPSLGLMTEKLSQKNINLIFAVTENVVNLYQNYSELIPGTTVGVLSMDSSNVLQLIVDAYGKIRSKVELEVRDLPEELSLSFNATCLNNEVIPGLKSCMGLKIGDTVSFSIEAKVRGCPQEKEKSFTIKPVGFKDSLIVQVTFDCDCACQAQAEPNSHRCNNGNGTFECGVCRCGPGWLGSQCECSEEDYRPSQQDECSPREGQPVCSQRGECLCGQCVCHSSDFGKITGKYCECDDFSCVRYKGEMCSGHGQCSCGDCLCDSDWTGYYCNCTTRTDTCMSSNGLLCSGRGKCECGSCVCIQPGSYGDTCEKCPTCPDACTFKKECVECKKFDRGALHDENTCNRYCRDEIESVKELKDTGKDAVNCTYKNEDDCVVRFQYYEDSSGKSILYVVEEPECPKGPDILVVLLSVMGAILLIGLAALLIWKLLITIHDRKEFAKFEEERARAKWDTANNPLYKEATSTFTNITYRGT
Sequence (P08514 32-887 limits assumed): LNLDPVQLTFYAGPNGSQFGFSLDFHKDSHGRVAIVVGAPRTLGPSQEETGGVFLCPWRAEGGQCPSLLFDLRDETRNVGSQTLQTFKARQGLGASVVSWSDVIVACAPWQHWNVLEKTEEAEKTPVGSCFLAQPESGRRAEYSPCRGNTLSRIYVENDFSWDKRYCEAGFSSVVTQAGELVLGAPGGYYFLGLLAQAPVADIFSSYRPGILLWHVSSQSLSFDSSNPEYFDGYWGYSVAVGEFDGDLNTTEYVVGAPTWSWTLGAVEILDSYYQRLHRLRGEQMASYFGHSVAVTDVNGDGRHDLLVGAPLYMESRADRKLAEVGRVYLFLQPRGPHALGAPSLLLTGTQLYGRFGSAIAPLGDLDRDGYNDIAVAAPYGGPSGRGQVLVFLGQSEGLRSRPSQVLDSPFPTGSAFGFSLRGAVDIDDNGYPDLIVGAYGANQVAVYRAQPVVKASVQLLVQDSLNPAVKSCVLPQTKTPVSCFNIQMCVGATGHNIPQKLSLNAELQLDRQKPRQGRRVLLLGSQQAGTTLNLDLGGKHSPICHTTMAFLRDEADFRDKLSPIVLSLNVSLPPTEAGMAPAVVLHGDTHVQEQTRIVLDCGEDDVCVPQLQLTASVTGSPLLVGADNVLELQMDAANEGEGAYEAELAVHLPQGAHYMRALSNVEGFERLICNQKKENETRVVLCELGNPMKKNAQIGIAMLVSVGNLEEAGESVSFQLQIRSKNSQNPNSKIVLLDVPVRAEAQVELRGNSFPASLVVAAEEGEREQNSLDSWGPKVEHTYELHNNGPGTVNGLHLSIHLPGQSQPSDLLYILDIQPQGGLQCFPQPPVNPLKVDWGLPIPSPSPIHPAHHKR
Sequence (P08514 891-1039 limits assumed): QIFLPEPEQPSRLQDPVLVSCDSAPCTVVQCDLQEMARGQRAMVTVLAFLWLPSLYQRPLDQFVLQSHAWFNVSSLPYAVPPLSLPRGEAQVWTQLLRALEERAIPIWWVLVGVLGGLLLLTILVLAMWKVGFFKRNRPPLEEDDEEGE
Positions of bridges follow the written chain, without caps; N, C: chain ends. Non-standard residues stand in square brackets, D forms with d. Residues, ends and D or L forms follow the SMILES beside them. NMeR = CN[C@@H](CCCNC(=N)N)C(=O)O
property-name: pIC50
Formally, pIC50 is defined as -log10 of the concentration c, with c in mol/L.

Input: State the recorded pIC50 for this entry: CC(=O)N[C@H]1CSSC[C@@H](C(N)=O)NC(=O)[C@H](CC(=O)O)NC(=O)CNC(=O)[C@H](CCCN=C(N)N)N(C)C1=O (Ac-C[NMeR]GDC-NH2; disulfide 1-5)
Output: 8.55

###

target: Integrin alpha-IIb/beta-3 (Homo sapiens, UniProt P05106+P08514); experiment: Inhibition of alpha IIb beta III mediated platelet aggregation
property-name: pKd
Expect pKd as a plain number equal to -log10 of the molar concentration.

Input: # lookup: pKd of CN1Cc2cc(C(=O)N3CCC(C4CCNCC4)CC3)ccc2N[C@@H](CC(=O)O)C1=O
Output: 8.73

###

Each record here notes measured pIC50.
biological target: Integrin alpha-IIb/beta-3 (Homo sapiens, UniProt P05106+P08514); test: Inhibition of fibrinogen binding to alpha IIb beta-3 integrin; assay type: protein-complex assay
Positions of bridges follow the written chain, without caps; N, C: chain ends. Non-standard residues stand in square brackets, D forms with d. Residues, ends and D or L forms follow the SMILES beside them. NMeR = CN[C@@H](CCCNC(=N)N)C(=O)O; 3Amb = NCc1cccc(C(=O)O)c1; dAbu = CC[C@@H](N)C(=O)O
// pIC50: -log10(molar conc.)

{"compound": "CC[C@H]1NC(=O)c2cccc(c2)CNC(=O)[C@H](CC(=O)O)NC(=O)CNC(=O)[C@H](CCCN=C(N)N)N(C)C1=O (cyclo([NMeR]GD[3Amb][dAbu]))", "assayed-system": "Integrin alpha-IIb/beta-3 (Homo sapiens, UniProt P05106+P08514)", "property-name": "pIC50", "experimental-value": 8.64}
{"compound": "COc1ccc(C[C@H](NC(=O)[C@H](CC(=O)O)NC(=O)CNC(=O)[C@@H](N)CCCNC(=N)N)C(N)=O)cc1 (H-RGDY(Me)-NH2)", "assayed-system": "Integrin alpha-IIb/beta-3 (Homo sapiens, UniProt P05106+P08514)", "property-name": "pIC50", "experimental-value": 4.57}
{"compound": "CC(=O)N[C@@H](CCCN=C(N)N)C(=O)NCC(=O)N[C@@H](CC(=O)O)C(=O)N[C@H](C(N)=O)C(C)C (Ac-RGDV-NH2)", "assayed-system": "Integrin alpha-IIb/beta-3 (Homo sapiens, UniProt P05106+P08514)", "property-name": "pIC50", "experimental-value": 4.57}

Input: Which pIC50 is reported for this compound? CC(=O)N[C@H]1CSSC[C@@H](C(N)=O)NC(=O)[C@H](CC(=O)O)NC(=O)CNC(=O)[C@H](CCCN=C(N)N)N(C)C1=O (Ac-C[NMeR]GDC-NH2; disulfide 1-5)
Output: 6.32

###

assay: Inhibition of vitronectin receptor binding; parameters: species or system Homo sapiens
property-name: Ki (nM)
Answer with a number only, understood to be in nM.

Input: Ki for CN1C(=O)c2ccccc2SSc2ccccc2NC(=O)[C@H](CC(=O)O)NC(=O)CNC(=O)[C@@H]1CCCN=C(N)N ?
Output: 3.5

###

biological target: Integrin alpha-IIb/beta-3 (Homo sapiens, UniProt P05106+P08514); assay: Dissociation constant for [3H]-DMP728 binding to alphaIIb beta III integrin; format: protein-complex assay
Non-standard residues stand in square brackets, D forms with d. Residues, ends and D or L forms follow the SMILES beside them. NMeR = CN[C@@H](CCCNC(=N)N)C(=O)O; 3Amb = NCc1cccc(C(=O)O)c1; dAbu = CC[C@@H](N)C(=O)O
property-name: pKd
The quantity pKd is defined as the negative base-10 logarithm of the molar concentration.

Input: // lookup pKd | system=Integrin alpha-IIb/beta-3 (Homo sapiens, UniProt P05106+P08514) | key= CC[C@H]1NC(=O)c2cccc(c2)CNC(=O)[C@H](CC(=O)O)NC(=O)CNC(=O)[C@H](CCCN=C(N)N)N(C)C1=O (cyclo([NMeR]GD[3Amb][dAbu]))
Output: 10.00

###

test: biological half-life was measured on dog; format: ADME, organism-based, Canis lupus familiaris; conditions: in vivo
Positions of bridges follow the written chain, without caps; N, C: chain ends. Non-standard residues stand in square brackets, D forms with d. Residues, ends and D or L forms follow the SMILES beside them. NMeR = CN[C@@H](CCCNC(=N)N)C(=O)O
property-name: half-life (h)
Respond with the bare value in h.

{"compound": "CCOC(=O)CCNC(=O)N[C@H]1CCN(c2ccc(C(=N)N)cc2)C1=O", "property-name": "half-life", "output-unit": "h", "experimental-value": 18}

Input: Given the compound CC(=O)N[C@H]1CSSC[C@@H](C(N)=O)NC(=O)[C@H](CC(=O)O)NC(=O)CNC(=O)[C@H](CCCN=C(N)N)N(C)C1=O (Ac-C[NMeR]GDC-NH2; disulfide 1-5) , what is its reported half-life?
Output: 1.1

###

assay: oral bioavailability was measured in rhesus monkeys; type: ADME, organism-based, Macaca mulatta; settings: rhesus monkey, in vivo
property-name: bioavailability (%)
Lab book: enter the figure in %, no units written.

Input: For the compound C#C[C@H](CC(=O)OCC)NC(=O)CN1CCc2ccc(N3CCNCC3)cc2C1=O , what bioavailability is on record?
Output: 32

###

assay: Oral bioavailability in dog; type: ADME, organism-based, Canis lupus familiaris; details: in vivo
property-name: bioavailability (%)
State just the number; it will be interpreted in %.

Input: Consider the compound CCOC(=O)CCNC(=O)N[C@H]1CCN(c2ccc(C(=N)N)cc2)C1=O [ORBOFIBAN] and give its measured bioavailability.
Output: 28

Input: Ok, now C[C@H](CC(=O)O)NC(=O)CN1CCC[C@@H](CCC2CCNCC2)C1=O
Output: 16

Input: And for C#C[C@H](CC(=O)O)NC(=O)CCC(=O)Nc1ccc(C(=N)N)cc1 ?
Output: 53

Input: Now give it for C[C@@]1(c2ccc(C(=N)N)cc2)NC(=O)N(CC(=O)NC(CC(=O)O)c2ccccc2)C1=O (some centres undefined) too.
Output: 42

###

experiment: The biological half life was measured on dog; type: ADME, organism-based, Canis lupus familiaris; conditions: in vivo
property-name: half-life (h)
Give a bare numeral; the unit h is implied.

Input: Which half-life is listed for C#C[C@H](CC(=O)O)NC(=O)CCC(=O)Nc1ccc(C(=N)N)cc1 ?
Output: 6.5

###

target: Integrin alpha-IIb/beta-3 (Homo sapiens, UniProt P05106+P08514); assay: Inhibition of fibrinogen binding to activated platelets
property-name: IC50 (nM)
Only the number, expressed in nM, is required.

Input: Please report the recorded IC50 for CCN(CC(=O)N[C@@H](CC(=O)O)C(=O)N[C@@H](Cc1ccccc1)C(N)=O)C(=O)CCCC1CCNCC1 .
Output: 28

###

assay: In vitro inhibition of gel filtered platelet aggregation induced by ADP.
property-name: pIC50
By convention, pIC50 is the negative base-10 log of a molar concentration.

Solved entries:
{"smiles-code": "N=C(N)c1ccc2oc(C(=O)NCCC(=O)NC[C@H](NS(=O)(=O)c3ccccc3)C(=O)O)cc2c1", "pIC50": 7.46}
{"smiles-code": "O=C(NC[C@H](NS(=O)(=O)c1cccnc1)C(=O)O)c1ccc2c(c1)C(=O)N(CCC1CCNCC1)C2", "pIC50": 7.82}
{"smiles-code": "N=C(N)c1ccc(C(=O)Nc2ccc3c(c2)CCN(CC(=O)O)C3=O)cc1", "pIC50": 7.05}
{"smiles-code": "O=C(NC[C@H](NS(=O)(=O)c1ccccc1)C(=O)O)c1cc2sc(CCC3CCNCC3)cc2s1", "pIC50": 8.15}
{"smiles-code": "O=C(O)CCNC(=O)c1ccc2c(c1)C(=O)N(CCC1CCNCC1)C2", "pIC50": 7.60}

Input: Name the reported pIC50 value associated with the compound O=C(NC[C@H](NS(=O)(=O)c1cccnc1)C(=O)O)c1cc2cc(CCC3CCNCC3)sc2s1
Output: 8.10

Input: Now the compound CN1C(=O)CN(CCC(=O)O)C(=O)c2cc(C#Cc3ccc(C(=N)N)cc3)ccc21
Output: 6.92

###

experiment: half life was measured on dogs; format: ADME, organism-based, Canis lupus familiaris; settings: dog, in vivo
property-name: half-life (h)
Dear colleague, please return just the value in h, with no unit written.

Input: What value of half-life has been recorded for this entry: O=C(O)C[C@H](NC(=O)[C@@H]1CCCN(C(=O)CCC2CCNCC2)C1)c1cccnc1 [ELAROFIBAN]
Output: 1.42
